molecular target: calf intestinal ADA (Type III, Sigma Chemical Company) (Bos taurus, UniProt P56658); construct: purchased Sigma Chemical Company Type III; host or cells: calf intestine; test: Testing for ADA inhibition, direct spectrophotometric assay at 265 nm; assay type: biochemical; conditions: calf intestinal ADA, 30° C.; read-out: Ki value (ADA inhibition)
Sequence (P56658 whole entry): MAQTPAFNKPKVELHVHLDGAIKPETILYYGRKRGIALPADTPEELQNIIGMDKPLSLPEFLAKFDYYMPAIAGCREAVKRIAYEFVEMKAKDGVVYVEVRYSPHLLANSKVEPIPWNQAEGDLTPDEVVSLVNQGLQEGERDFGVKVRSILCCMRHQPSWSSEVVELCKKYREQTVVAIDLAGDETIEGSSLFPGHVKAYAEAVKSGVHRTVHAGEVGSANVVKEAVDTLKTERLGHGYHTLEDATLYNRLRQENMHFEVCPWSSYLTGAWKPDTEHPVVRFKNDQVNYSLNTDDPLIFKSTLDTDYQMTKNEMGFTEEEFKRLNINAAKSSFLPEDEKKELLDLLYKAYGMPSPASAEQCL
Measured Ki, listed per entry.

| compound | measured.on | Ki (nM) |
| --- | --- | --- |
| C[C@H](O)[C@@H](CCCCCCO)n1cnc2c(N)ncnc21 | calf intestinal ADA (Type III, Sigma Chemical Company) (Bos taurus, UniProt P56658) | 3.4 |
| CC(O)CCCC[C@H]([C@H](C)O)n1cnc2c(N)ncnc21 (single isomer, unassigned) | calf intestinal ADA (Type III, Sigma Chemical Company) (Bos taurus, UniProt P56658) | 11 |
| C[C@H](O)[C@@H](CCCCC(O)CO)n1cnc2c(N)ncnc21 (single isomer, unassigned) | calf intestinal ADA (Type III, Sigma Chemical Company) (Bos taurus, UniProt P56658) | 6 |

The reported measurements were obtained from patent US5491146A.
